target: recombinant human CYP1B1 (Homo sapiens); assay: EROD assay, recombinant human CYP1B1 inhibition; type: biochemical; settings: selectivity for CYP1B1 over CYP1A1
Please assign a class to every record based on measured IC50 ratio 1A1/1B1, with ranges zone 1: < 3; zone 2: ≥ 3 and < 5; zone 3: ≥ 5

>>> qualitative_label("O=C1CC(c2ccccc2)Nc2c1ccc1ccccc21 (stereo not drawn)")
"zone 2"
>>> qualitative_label("COc1cc2c(=O)cc(-c3ccc(F)cc3)[nH]c2c2c(OC)cccc12")
"zone 1"
>>> qualitative_label("O=c1c(O)c(-c2ccc(O)cc2)[nH]c2c1ccc1ccccc12")
"zone 2"
>>> qualitative_label("COc1cc(C2CC(=O)c3ccc4ccccc4c3N2)cc(OC)c1OC (stereo not drawn)")
"zone 1"
>>> qualitative_label("COc1cc2c(=O)cc(-c3cccc(Cl)c3)[nH]c2c2c(OC)cccc12")
"zone 1"
>>> qualitative_label("COc1cc2c(=O)cc(-c3ccccc3)[nH]c2c2c(OC)cccc12")
"zone 1"
>>> qualitative_label("O=c1c(O)c(-c2ccc(F)cc2)[nH]c2c1ccc1ccccc12")
"zone 2"
>>> qualitative_label("COc1cc2c(=O)cc(-c3ccc(C(F)(F)F)cc3)[nH]c2c2c(OC)cccc12")
"zone 3"
>>> qualitative_label("COc1cc2c(=O)cc(-c3ccccc3F)[nH]c2c2c(OC)cccc12")
"zone 1"
>>> qualitative_label("O=C1CC(c2ccccc2F)Nc2c1ccc1ccccc21 (stereo not drawn)")
"zone 2"
>>> qualitative_label("O=C1c2ccc3ccccc3c2N[C@@H](c2ccccc2)[C@H]1O")
"zone 1"
>>> qualitative_label("COc1cc2c(=O)cc(-c3cccc(Br)c3)[nH]c2c2c(OC)cccc12")
"zone 3"
>>> qualitative_label("COc1cc([C@@H]2Nc3c(ccc4ccccc34)C(=O)[C@@H]2O)cc(OC)c1OC")
"zone 2"
>>> qualitative_label("O=c1c(O)c(-c2ccccc2)[nH]c2c1ccc1ccccc12")
"zone 3"
>>> qualitative_label("O=c1c(O)c(-c2ccccc2F)[nH]c2c1ccc1ccccc12")
"zone 3"
>>> qualitative_label("COc1ccc(-c2cc(=O)c3cc(OC)c4cccc(OC)c4c3[nH]2)cc1")
"zone 3"
>>> qualitative_label("O=c1cc(-c2ccccc2)[nH]c2c1ccc1ccccc12 [Compound 3e, 2-Phenylbenzo[h]quinolin-4(1H)-one]")
"zone 3"

###

Item-by-item account of IC50
target: recombinant human CYP1B1 (Homo sapiens, UniProt Q16678); assay: EROD assay, recombinant human CYP1B1 inhibition; format: biochemical
Sequence (Q16678 whole entry): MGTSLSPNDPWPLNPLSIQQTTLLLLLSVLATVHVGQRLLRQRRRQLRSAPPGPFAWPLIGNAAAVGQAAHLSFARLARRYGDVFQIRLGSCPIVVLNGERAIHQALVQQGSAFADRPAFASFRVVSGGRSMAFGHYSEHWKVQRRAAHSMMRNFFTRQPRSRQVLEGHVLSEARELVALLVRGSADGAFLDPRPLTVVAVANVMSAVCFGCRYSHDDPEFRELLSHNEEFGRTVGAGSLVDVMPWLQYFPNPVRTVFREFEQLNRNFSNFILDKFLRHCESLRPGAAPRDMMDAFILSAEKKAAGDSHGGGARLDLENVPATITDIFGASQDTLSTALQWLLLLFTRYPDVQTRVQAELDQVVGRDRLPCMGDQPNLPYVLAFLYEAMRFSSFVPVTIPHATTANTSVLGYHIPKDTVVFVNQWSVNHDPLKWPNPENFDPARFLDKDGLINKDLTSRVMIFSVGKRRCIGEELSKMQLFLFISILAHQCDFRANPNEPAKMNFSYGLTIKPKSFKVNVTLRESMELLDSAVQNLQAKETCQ
quantity.kind: IC50

>>> test_value("COc1cc([C@@H]2Nc3c(ccc4ccccc34)C(=O)[C@@H]2O)cc(OC)c1OC")
"303 nM"
>>> test_value("COc1cc2c(=O)cc(-c3cccc(Cl)c3)[nH]c2c2c(OC)cccc12")
"27.6 nM"
>>> test_value("COc1cc2c(=O)cc(-c3cccc(F)c3)[nH]c2c2c(OC)cccc12")
"7.8 nM"
>>> test_value("O=c1c(O)c(-c2ccc(O)cc2)[nH]c2c1ccc1ccccc12")
"142 nM"
>>> test_value("O=C1CC(c2ccccc2)Nc2c1ccc1ccccc21 (stereo not drawn)")
"131 nM"
>>> test_value("O=C1CC(c2cccc(F)c2)Nc2c1ccc1ccccc21 (stereo not drawn)")
"98.6 nM"
>>> test_value("COc1cc2c(=O)cc(-c3ccccc3)[nH]c2c2c(OC)cccc12")
"16.6 nM"
>>> test_value("O=C1CC(c2ccccc2F)Nc2c1ccc1ccccc21 (stereo not drawn)")
"139 nM"
>>> test_value("COc1cc2c(=O)cc(-c3ccccc3F)[nH]c2c2c(OC)cccc12")
"27.9 nM"

###

molecular target: CYP1A2 (Homo sapiens, UniProt P05177); test: EROD assay, recombinant human CYP1A2 inhibition; type: biochemical
Sequence (P05177 2-516 limits assumed): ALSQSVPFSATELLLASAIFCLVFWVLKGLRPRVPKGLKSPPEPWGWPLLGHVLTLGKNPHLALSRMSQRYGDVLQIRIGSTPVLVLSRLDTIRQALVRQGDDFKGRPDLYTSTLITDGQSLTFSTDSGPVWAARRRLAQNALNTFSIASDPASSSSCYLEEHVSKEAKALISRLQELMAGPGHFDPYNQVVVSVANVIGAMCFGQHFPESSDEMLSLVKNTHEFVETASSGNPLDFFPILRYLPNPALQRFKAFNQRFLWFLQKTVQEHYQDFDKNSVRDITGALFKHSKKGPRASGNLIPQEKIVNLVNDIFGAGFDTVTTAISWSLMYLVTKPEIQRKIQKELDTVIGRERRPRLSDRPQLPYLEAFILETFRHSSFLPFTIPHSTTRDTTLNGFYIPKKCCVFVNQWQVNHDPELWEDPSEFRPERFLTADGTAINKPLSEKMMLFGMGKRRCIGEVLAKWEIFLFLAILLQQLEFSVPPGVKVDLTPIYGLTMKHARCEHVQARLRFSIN
Each record is given Fulfilled if its reported IC50 is strictly below 1000 nM. Records at or above 1000 nM are given Not fulfilled.

>>> qualitative_label("COc1cc([C@@H]2Nc3c(ccc4ccccc34)C(=O)[C@@H]2O)cc(OC)c1OC")
"Not fulfilled"
>>> qualitative_label("O=C1CC(c2cccc(F)c2)Nc2c1ccc1ccccc21 (centres unmarked)")
"Not fulfilled"
>>> qualitative_label("COc1cc2c(=O)cc(-c3ccc(C(F)(F)F)cc3)[nH]c2c2c(OC)cccc12")
"Not fulfilled"
>>> qualitative_label("O=c1c(O)c(-c2ccccc2)[nH]c2c1ccc1ccccc12")
"Not fulfilled"
>>> qualitative_label("COc1cc2c(=O)cc(-c3ccccc3)[nH]c2c2c(OC)cccc12")
"Fulfilled"
>>> qualitative_label("O=C1CC(c2ccccc2F)Nc2c1ccc1ccccc21 (centres unmarked)")
"Not fulfilled"
>>> qualitative_label("O=c1c(O)c(-c2ccc(O)cc2)[nH]c2c1ccc1ccccc12")
"Not fulfilled"
>>> qualitative_label("COc1cccc(-c2cc(=O)c3cc(OC)c4cccc(OC)c4c3[nH]2)c1")
"Fulfilled"
>>> qualitative_label("O=c1cc(-c2ccccc2)[nH]c2c1ccc1ccccc12 [Compound 3e, 2-Phenylbenzo[h]quinolin-4(1H)-one]")
"Fulfilled"
>>> qualitative_label("COc1ccc(-c2cc(=O)c3cc(OC)c4cccc(OC)c4c3[nH]2)cc1")
"Not fulfilled"
>>> qualitative_label("O=c1c(O)c(-c2ccc(F)cc2)[nH]c2c1ccc1ccccc12")
"Not fulfilled"

###

molecular target: CYP1A1 (Homo sapiens, UniProt P04798); assay: EROD assay, recombinant human CYP1A1 inhibition; type: biochemical
pIC50: −log10 of the molar value.
Record Fulfilled whenever pIC50 is at 7 or higher; record Not fulfilled when lower.

>>> qualitative_label("COc1cc2c(=O)cc(-c3cccc(Cl)c3)[nH]c2c2c(OC)cccc12 [Compound 5d]")
"Fulfilled"
>>> qualitative_label("COc1cc([C@@H]2Nc3c(ccc4ccccc34)C(=O)[C@@H]2O)cc(OC)c1OC [Compound 2b]")
"Not fulfilled"
>>> qualitative_label("COc1cc2c(=O)cc(-c3cccc(F)c3)[nH]c2c2c(OC)cccc12 [Compound 5c]")
"Fulfilled"
>>> qualitative_label("O=C1CC(c2cccc(F)c2)Nc2c1ccc1ccccc21 (centres unmarked) [Compound 1d]")
"Not fulfilled"
>>> qualitative_label("COc1cc2c(=O)cc(-c3ccccc3F)[nH]c2c2c(OC)cccc12 [Compound 5b]")
"Fulfilled"

###

Molecular target: CYP1A1 (Homo sapiens)
Sequence (P04798 1-512): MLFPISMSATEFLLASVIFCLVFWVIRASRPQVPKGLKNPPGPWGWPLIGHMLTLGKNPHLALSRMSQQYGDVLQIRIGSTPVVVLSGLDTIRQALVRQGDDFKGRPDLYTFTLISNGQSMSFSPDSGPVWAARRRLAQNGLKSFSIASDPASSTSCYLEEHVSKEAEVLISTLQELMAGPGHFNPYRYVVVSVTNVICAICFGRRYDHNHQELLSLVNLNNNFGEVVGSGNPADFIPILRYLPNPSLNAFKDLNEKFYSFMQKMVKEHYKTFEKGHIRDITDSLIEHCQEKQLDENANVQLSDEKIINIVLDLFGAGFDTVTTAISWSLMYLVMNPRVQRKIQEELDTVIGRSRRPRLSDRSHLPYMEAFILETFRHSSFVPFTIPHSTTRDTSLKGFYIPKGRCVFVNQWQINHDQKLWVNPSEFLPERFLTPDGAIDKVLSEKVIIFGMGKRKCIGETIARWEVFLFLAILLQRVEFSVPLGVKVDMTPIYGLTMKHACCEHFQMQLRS
Test: EROD assay, recombinant human CYP1A1 inhibition
Type: biochemical
pIC50: −log10 of the molar value.
quantity.kind: pIC50

>>> test_value("O=C1CC(c2ccccc2)Nc2c1ccc1ccccc21 (centres unmarked) [Compound 1a]")
6.39
>>> test_value("COc1cc(-c2cc(=O)c3cc(OC)c4cccc(OC)c4c3[nH]2)cc(OC)c1OC [Compound 5j]")
6.09
>>> test_value("O=c1cc(-c2ccccc2)oc2c1ccc1ccccc12 [ANF, α-Naphthoflavone]")
7.20
>>> test_value("COc1cc2c(=O)cc(-c3ccc(C(F)(F)F)cc3)[nH]c2c2c(OC)cccc12 [Compound 5i]")
6.52
>>> test_value("O=c1cc(-c2ccccc2)[nH]c2c1ccc1ccccc12 [Compound 3e, 2-Phenylbenzo[h]quinolin-4(1H)-one]")
6.99
>>> test_value("COc1cc2c(=O)cc(-c3ccccc3)[nH]c2c2c(OC)cccc12 [Compound 5a]")
7.90
>>> test_value("O=c1c(O)c(-c2ccc(O)cc2)[nH]c2c1ccc1ccccc12 [Compound 3c]")
6.28
>>> test_value("O=c1c(O)c(-c2ccccc2F)[nH]c2c1ccc1ccccc12 [Compound 3b]")
5.75
>>> test_value("O=c1c(O)c(-c2ccccc2)[nH]c2c1ccc1ccccc12 [Compound 3a]")
6.05
>>> test_value("COc1cc(C2CC(=O)c3ccc4ccccc4c3N2)cc(OC)c1OC (centres unmarked) [Compound 1b]")
7.35
>>> test_value("COc1cccc(-c2cc(=O)c3cc(OC)c4cccc(OC)c4c3[nH]2)c1 [Compound 5f]")
7.45
>>> test_value("O=c1c(O)c(-c2ccc(F)cc2)[nH]c2c1ccc1ccccc12 [Compound 3d]")
6.48
>>> test_value("O=C1CC(c2ccccc2F)Nc2c1ccc1ccccc21 (centres unmarked) [Compound 1c]")
6.24
>>> test_value("O=C1c2ccc3ccccc3c2N[C@@H](c2ccccc2)[C@H]1O [Compound 2a]")
6.23
